Just for reference, ChEMBL document CHEMBL4808148 is where these values come from.

Target: Protein deacetylase HDAC6 (Homo sapiens)
Settings: at 10 µM
The whole screen tested about 5,600 compounds, of which about 390 (7%) showed an effect of 50% or more. The sample holds strong results, similar compounds and a random draw of the others, so the mix is not that of the screen.
inhibition values by entry
Write the number in % without appending the unit.

May I ask what inhibition has been recorded for CC(=C\c1ccc(Cl)cc1)/C(C)=N/O ?
2.85

====

Target: Protein deacetylase HDAC6 (Homo sapiens) (UniProt Q9UBN7)
Details: at 10 µM
Out of some 5,600 compounds screened, about 390 (7%) showed an effect of 50% or more. Only a selection was taken, and strong results are over-represented in it overall.
Label Satisfied for high-side inhibition (at or above 20%) and Not satisfied for low-side inhibition (below it).

Use these answered entries as a reference point.
* CN1CCC(Nc2ncc3ncnc(Nc4ccc(F)c(Cl)c4)c3n2)CC1 | Satisfied
* C[N+]1(CCCCC[N+]2(C)CCCC2)CCCC1 | Not satisfied
* Oc1cc(O)cc(/C=C/c2ccc(O)c(O)c2)c1 | Satisfied
* Nc1cccc2c(=O)[nH][nH]c(=O)c12 | Satisfied
* Cn1nc(-c2ccc(C(F)(F)F)cc2)nc2c(=O)n(C)c(=O)nc1-2 | Not satisfied

Check if inhibition >= 20% (inclusive). Item: C[C@@]12CCC3[C@@](CC[C@@H]4[C@](C)(C(=O)O)CCC[C@@]34C)(CC1=O)C2 (stereo not given in full)
Not satisfied

Likewise for NC(=O)C1=CN([C@@H]2O[C@H](COP(=O)(O)OP(=O)(O)OC[C@H]3O[C@@H](n4cnc5c(N)ncnc54)[C@H](O)[C@@H]3O)[C@@H](O)[C@H]2O)C=CC1 ?
Not satisfied

====

We begin with a simple list: items and their reported inhibition.
Biological target: Protein deacetylase HDAC6 (Homo sapiens)
Sequence (whole entry): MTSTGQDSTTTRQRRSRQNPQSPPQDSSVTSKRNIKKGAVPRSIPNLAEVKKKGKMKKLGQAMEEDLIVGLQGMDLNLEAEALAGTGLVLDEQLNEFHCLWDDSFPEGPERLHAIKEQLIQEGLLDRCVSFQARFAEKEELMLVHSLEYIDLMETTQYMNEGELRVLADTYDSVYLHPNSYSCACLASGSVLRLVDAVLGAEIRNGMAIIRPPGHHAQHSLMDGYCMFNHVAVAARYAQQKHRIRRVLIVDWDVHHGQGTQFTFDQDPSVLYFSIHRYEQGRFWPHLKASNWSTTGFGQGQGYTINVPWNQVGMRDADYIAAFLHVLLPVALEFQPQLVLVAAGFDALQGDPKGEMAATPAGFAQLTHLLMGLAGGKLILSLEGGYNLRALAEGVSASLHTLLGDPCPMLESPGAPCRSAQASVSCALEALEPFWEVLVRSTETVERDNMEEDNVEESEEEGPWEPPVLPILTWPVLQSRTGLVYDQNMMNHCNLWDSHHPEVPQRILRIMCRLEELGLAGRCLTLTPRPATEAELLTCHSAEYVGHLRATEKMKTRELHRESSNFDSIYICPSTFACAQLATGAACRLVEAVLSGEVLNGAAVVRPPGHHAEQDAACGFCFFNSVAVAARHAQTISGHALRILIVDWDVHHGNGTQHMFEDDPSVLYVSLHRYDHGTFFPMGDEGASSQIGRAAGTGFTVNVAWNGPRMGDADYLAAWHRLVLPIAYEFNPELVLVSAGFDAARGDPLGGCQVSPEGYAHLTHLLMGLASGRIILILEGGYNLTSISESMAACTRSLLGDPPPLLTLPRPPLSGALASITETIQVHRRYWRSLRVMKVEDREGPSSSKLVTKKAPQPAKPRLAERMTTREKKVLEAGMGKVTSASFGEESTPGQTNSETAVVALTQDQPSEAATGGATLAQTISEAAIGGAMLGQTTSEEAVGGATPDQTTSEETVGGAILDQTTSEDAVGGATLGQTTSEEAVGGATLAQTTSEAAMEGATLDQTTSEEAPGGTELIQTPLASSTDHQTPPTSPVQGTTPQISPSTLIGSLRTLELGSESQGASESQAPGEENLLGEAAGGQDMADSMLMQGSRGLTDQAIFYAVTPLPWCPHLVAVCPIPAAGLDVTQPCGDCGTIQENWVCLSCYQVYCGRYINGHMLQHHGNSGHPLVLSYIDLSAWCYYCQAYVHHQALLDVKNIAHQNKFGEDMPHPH
Settings: at 10 µM
The campaign covered roughly 5,600 compounds. About 390 (7%) showed an effect of 50% or more. The entries come from a sample that favours strong results as a whole.
Reply numerically in %, unit not repeated.

Below: 5 molecules and their reported inhibition.
* COc1ccc2c(c1)-c1nn(CCCN(C)C)c3ccc([N+](=O)[O-])c(c13)N2 | 9.03
* NC(C(=O)O)c1ccc(C(=O)O)c(O)c1 (racemic) | -7.25
* Cc1cccc(C)c1NC(=O)c1ccc(N)cc1 | 7.12
* CCCCCCCCCCCCCC(=O)OC(C)C | 30.5
* CCCC(=O)Nc1cccc(NC(=O)c2ccccc2Br)c1 | 21

# ---- query molecule ----
Data request, read-out inhibition, for O=c1cc(-c2ccccc2)oc2cc(O)c(O)c(O)c12
99.6

====

Target: Protein deacetylase HDAC6 (Homo sapiens)
Sequence (whole entry): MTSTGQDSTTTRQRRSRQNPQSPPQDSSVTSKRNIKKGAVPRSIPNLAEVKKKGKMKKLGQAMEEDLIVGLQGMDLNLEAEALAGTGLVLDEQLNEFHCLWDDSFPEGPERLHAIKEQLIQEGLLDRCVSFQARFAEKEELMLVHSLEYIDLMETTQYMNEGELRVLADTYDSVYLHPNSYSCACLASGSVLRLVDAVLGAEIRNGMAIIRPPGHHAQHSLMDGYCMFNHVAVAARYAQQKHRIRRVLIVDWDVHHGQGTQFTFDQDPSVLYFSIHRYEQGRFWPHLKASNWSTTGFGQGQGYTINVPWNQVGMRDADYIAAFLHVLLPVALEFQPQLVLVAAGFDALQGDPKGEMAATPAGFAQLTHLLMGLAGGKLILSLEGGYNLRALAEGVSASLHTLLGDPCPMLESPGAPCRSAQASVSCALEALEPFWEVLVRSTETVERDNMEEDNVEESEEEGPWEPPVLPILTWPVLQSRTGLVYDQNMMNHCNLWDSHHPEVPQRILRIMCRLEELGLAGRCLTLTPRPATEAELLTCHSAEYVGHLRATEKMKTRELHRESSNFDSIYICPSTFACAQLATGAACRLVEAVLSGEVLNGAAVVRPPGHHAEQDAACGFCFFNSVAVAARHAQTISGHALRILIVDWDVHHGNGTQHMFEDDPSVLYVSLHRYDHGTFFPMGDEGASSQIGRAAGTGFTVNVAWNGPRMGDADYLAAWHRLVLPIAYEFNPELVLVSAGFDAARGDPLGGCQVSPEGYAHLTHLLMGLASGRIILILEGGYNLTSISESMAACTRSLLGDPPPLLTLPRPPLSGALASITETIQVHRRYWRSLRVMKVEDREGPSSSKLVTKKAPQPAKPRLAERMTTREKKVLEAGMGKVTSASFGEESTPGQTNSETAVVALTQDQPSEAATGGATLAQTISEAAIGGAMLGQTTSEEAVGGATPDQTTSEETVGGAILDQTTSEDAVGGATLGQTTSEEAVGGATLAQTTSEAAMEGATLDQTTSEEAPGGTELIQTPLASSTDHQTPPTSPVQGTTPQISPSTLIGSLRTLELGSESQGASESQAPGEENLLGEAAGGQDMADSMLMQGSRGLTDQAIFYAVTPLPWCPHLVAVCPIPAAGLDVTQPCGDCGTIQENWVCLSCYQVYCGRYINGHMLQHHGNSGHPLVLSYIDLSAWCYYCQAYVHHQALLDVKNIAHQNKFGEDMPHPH
Conditions: at 10 µM
In all, about 5,600 compounds went through this assay and about 390 (7%) showed an effect of 50% or more. Only a selection was taken, and strong results are over-represented in it overall.
quantity.kind: inhibition (%)
Please reply with the bare figure in % and do not write the unit itself.

* Cc1ccc2c(c1)C(=O)[C@]1(O)CCN(c3ccccc3)C1=N2 | -8.19
* COc1cc(Br)c(Nc2nc(-c3c(C)nc4ncccn34)cs2)c(Br)c1 | -6.53
* N=C(N)NC(=N)N1CCOCC1 | -0.5
* Nc1nc(=O)c2c([nH]1)NC[C@H](CNc1ccc(C(=O)N[C@@H](CCC(=O)O)C(=O)O)cc1)N2C=O | 3.47
* CN(C)CCOC(=O)COc1ccc(Cl)cc1 | 1.19

Kindly consider the entry below.
Given the entry Cc1cn(C[C@H](N)C(=O)O)c(=O)n(Cc2ccsc2C(=O)O)c1=O , report its measured inhibition.
14.3

====

Molecular target: Protein deacetylase HDAC6 (Homo sapiens)
Conditions: at 10 µM
Hit rate of the full screen: of about 5,600 compounds, about 390 (7%) showed an effect of 50% or more. The sample as a whole holds a higher share of strong results than the screen did.
Consider the following compounds and their measured inhibition readings.
Could you give me the number in %? Just the number is fine.

As a guide, the following entries are already answered.
* O=S(=O)(Cc1ccccc1)Nc1ccc(-c2ccc3c(cnn3-c3ccc(F)cc3)c2)c(C(F)(F)F)c1 | -8.14
* CCCCC/C=C\C=C/CCCCCCCCC(=O)O | 13.9
* c1ccc(Oc2nc3ncnc-3c(NC3CCCCC3)[nH]2)cc1 | -6.25
* CCCCCCCCOc1ccccc1C(=O)Nc1ccc(C(=O)OCC[N+](C)(CC)CC)cc1 | -3.51
* CCOc1ccccc1C(N)=O | 18.7

Fill in the blank: the reported inhibition of O=C(Oc1ccccc1C(=O)O)c1ccccc1O is ____.
43.2

Next record, please: Oc1cc(O)c2c(c1)O[C@H](c1ccc(O)c(O)c1)[C@H](O)[C@H]2c1c(O)cc(O)c2c1O[C@H](c1ccc(O)c(O)c1)[C@H](O)C2
11

Subsequent entry: CC[N+](CC)(CC)CCOc1ccc(/C=C/c2ccccc2)cc1
-4.16
